system: SKMEL-5 melanoma; assay: MTT cytotoxicity assay, SKMEL-5; settings: Homo sapiens, SK-MEL-5, […], read-out: Cytotoxicity ED50, SKMEL-5
Here, each record is paired with measured pIC50 data.
// pIC50 here means minus log10 of the molar concentration (mol/L)

Example cases with answers are listed next.
{"compound": "COc1cc(CCc2ccc(N)cc2)cc(OC)c1OC [compound 8z]", "pIC50": 4.90}
{"compound": "COc1cccc2c1C(=O)c1c(O)c3c(c(O)c1C2=O)C[C@@](O)(C(=O)CO)C[C@@H]3O[C@H]1C[C@H](N)[C@H](O)[C@H](C)O1 [Adriamycin, reference compound]", "pIC50": 7.49}
{"compound": "COc1cc(CCc2ccc(OCCN(C)C)cc2)cc(OC)c1OC [17f]", "pIC50": 4.94}
{"compound": "CCCOc1ccc(/C=C\\c2cc(OC)c(OC)c(OC)c2)cc1 [compound 15b]", "pIC50": 7.85}

Exercise: Record request: pIC50 value, item COc1ccc2ccc3cc(OC)c(OC)c(OC)c3c2c1 [32b, 2,3,4,6-Tetramethoxyphenanthrene]
Key: 4.90

Reference source for all entries: patent US5430062A
